- System: NCI-H226 lung
- MEASUREMENT PROTOCOL: NCI tumour cell line growth inhibition, 48 h
Measured TGI by item

COMPOUND | TGI
Cc1ccccc1NC(=O)CC(=O)N1N=C(N2c3ccccc3Sc3ccccc32)CC1c1ccccc1 (stereo not given) | > 100 µM
CCOc1ccc2ccc3cccnc3c2n1 | > 100 µM
CCCCCCCCCCCCn1[nH]c(C)c(C(=S)SCCCCCCCC)c1=O | > 94.8 µM
Cc1nc(Nc2ccccc2)sc1C(=O)NNc1ccc([N+](=O)[O-])cc1[N+](=O)[O-] | > 100 µM

Summary: `O=S(=O)(O)c1cc(N=[N+]([O-])c2cc(S(=O)(=O)O)c3ccccc3c2)cc2ccccc12` , NCI-H226 lung, TGI = > 100 µM

* * *

Measured TGI by item
- System: PC-3 prostate
- MEASUREMENT PROTOCOL: NCI tumour cell line growth inhibition, 48 h

The examples below pair each entry with its known result.
COMPOUND | TGI
Cc1cc(C)cc(Nc2ccc([N+](=O)[O-])c(NCCN3CCOCC3)n2)c1 | > 100 µM
NC(=S)N/N=C\c1nccc2c(N)cccc12 | > 100 µM

Turning to the following compound.
get_value(item= CCCC(=O)OCC1OC(n2cc(F)c(=O)[nH]c2=O)C(F)C1OC(=O)CCC (stereo not drawn) , readout=TGI) returns > 100 µM

* * *

Measured log10 of TGI by item
- Tested on: HS 578T breast
- MEASUREMENT PROTOCOL: NCI tumour cell line growth inhibition, 48 h
The figures below represent log10 of TGI, where TGI is stated in µM.

The examples below pair each entry with its known result.
COMPOUND | log10 of TGI
O=C1/C(=C/c2ccccc2)CCc2ccccc21 | 1.86
C/C1=C/C(=O)O[C@@H]2C[C@@H](CC[C@H](C)/C=C\C=C\CC1)O[C@@](OCCc1ccccc1)([C@@H]1CSC(=O)N1)C2 | -1.01
O=c1oc2ccccc2c(O)c1C(c1ccc2c(c1)Cc1ccccc1-2)c1c(O)c2ccccc2oc1=O | 1.94
CC(/C=N\NC(=S)N(C)C)=N/NC(=S)N(C)C | 1.72
CC(=O)OC1CCC2(C)C(=CCC3C4CCC5(OC6CC(C)CN(C(C)=O)C6C5C)C(C)=C4C(=O)C32)C1 (configuration not stated) | 1.50
O=C(O)c1cc(O)c2c(c1)C([C@@H]1c3cccc(O)c3C(=O)c3c(O)cc(C(=O)O)cc31)c1cccc(O)c1C2=O (some centres not stated) | 1.84

get_value(item= CC(CN1CCN(CC(C)Nc2ccnc3cc(Cl)ccc23)CC1)Nc1ccnc2cc(Cl)ccc12 (configuration not stated) , readout=log10 of TGI) returns 0.99

get_value(item= Cc1cc(=O)oc2c3c(ccc12)OC(c1ccc(Br)cc1)CC3=O (configuration not stated) , readout=log10 of TGI) returns 1.58

get_value(item= `O=C(Nc1cccc(O)c1)c1cccc(NC2=C(Cl)C(=O)N(Cc3ccccc3)C2=O)c1` , readout=log10 of TGI) returns 1.64

get_value(item= `CN(/N=C\c1ccc2ccccc2c1)C1=NCCN1` , readout=log10 of TGI) returns 1.68

get_value(item= `COc1ccc(C(=O)COc2cccc(/C=C3\CSc4ccc(Cl)cc4C3=O)c2)cc1` , readout=log10 of TGI) returns 1.50

get_value(item= O=[N+]([O-])c1ccc2c(c1)nc(Cc1ccc(Cl)cc1)n2C[C@@H]1CCCN2CCCCC12 (some centres not stated) , readout=log10 of TGI) returns 1.64
